test system: anti-peptide IgG in plasma; assay: Test Example 4: peptide-specific IgG titer pre and post vaccination, bead-based multiplexed Luminex assay; format: in vivo, human; conditions: Table 20; patients showing both <64% neutrophil and ≥26% lymphocyte

residue string	Post vaccination IgG Median (FIU)
ILEQSGEWWK (listed as Homo sapiens) [Lck-90]	4,250 FIU
KYVGIEREM (listed as Homo sapiens) [EZH2-735]	20,673 FIU
NVLHFFNAPL (listed as Homo sapiens) [HNRPL-501]	12,553 FIU
RYLTQETNKV (listed as Homo sapiens) [PTHrP-102]	5,336 FIU
AYDFLYNYL (listed as Homo sapiens) [SART2-161]	775 FIU
DVWSFGILL (listed as Homo sapiens) [Lck-422]	446 FIU
DYVREHKDNI (listed as Homo sapiens) [EGFR-800]	746 FIU
VIQNLERGYR (listed as Homo sapiens) [Lck-449]	18,734 FIU
VYDYNCHVDL (listed as Homo sapiens) [SART3-109]	9,770 FIU
TFDYLRSVL (listed as Homo sapiens) [Lck-486]	17,613 FIU
DLLSHAFFA (listed as Homo sapiens) [MAP-432]	947 FIU
LYAWEPSFL (listed as Homo sapiens) [MRP3-503]	13,871 FIU
KLKHYGPGWV (listed as Homo sapiens) [CypB-129]	3,143 FIU
KLVERLGAA (listed as Homo sapiens) [Lck-246]	15,377 FIU
RLAEYQAYI (listed as Homo sapiens) [SART3-309]	6,009 FIU
HYRKWIKDTI (listed as Homo sapiens) [PSA-248]	18,191 FIU
LYCESVHNF (listed as Homo sapiens) [PAP-213]	15,379 FIU
DYLRSVLEDF (listed as Homo sapiens) [Lck-488]	11,894 FIU
NYSVRYRPGL (listed as Homo sapiens) [MRP3-1293]	6,491 FIU
WLEYYNLER (listed as Homo sapiens) [SART3-511]	1,095 FIU
LLQAEAPRL (listed as Homo sapiens) [SART3-302]	17,719 FIU
ALVEFEDVL (listed as Homo sapiens) [HNRPL-140]	7,150 FIU
